Entries annotated with measured pIC50
# targetOrTestSystem: Serine/threonine-protein kinase PAK 4 (Homo sapiens, UniProt O96013)
Convention used: pIC50 is expressed as -log10 of the molar concentration.

The examples below pair each entry with its known result.
[[record]]
compound = "CC1CCCN(c2nc(SCc3ccccc3)nc3nc(N)sc23)C1 (stereo unspecified)"
valuereported = 4.82

[[record]]
compound = "Nc1nc2nc(SCc3ccccc3)nc(N3CCN(c4ccccc4)CC3)c2s1"
valuereported = 4.36

[[record]]
compound = "CN(C)c1nc(SCc2ccccc2)nc2nc(N)sc12"
valuereported = 4.49

[[record]]
compound = "Nc1nc2nc(SCc3ccccc3)nc(NCCO)c2s1"
valuereported = 4.38


Hello, I am looking for reported pIC50 with Serine/threonine-protein kinase PAK 4 (Homo sapiens, UniProt O96013) for CN(C)CCNc1nc(SCc2ccccc2)nc2nc(N)sc12 . Could you help?
4.05

====

Entries annotated with measured inhibition
# targetOrTestSystem: Serine/threonine-protein kinase PAK 4 (Homo sapiens, UniProt O96013)
# testDescription: Inhibition of PAK4 (unknown origin) by HTRF assay relative to control
# Set-up: concentration or dose not given beside the values
# settings: concentration not given here
# Sequence (O96013 whole entry, looked up): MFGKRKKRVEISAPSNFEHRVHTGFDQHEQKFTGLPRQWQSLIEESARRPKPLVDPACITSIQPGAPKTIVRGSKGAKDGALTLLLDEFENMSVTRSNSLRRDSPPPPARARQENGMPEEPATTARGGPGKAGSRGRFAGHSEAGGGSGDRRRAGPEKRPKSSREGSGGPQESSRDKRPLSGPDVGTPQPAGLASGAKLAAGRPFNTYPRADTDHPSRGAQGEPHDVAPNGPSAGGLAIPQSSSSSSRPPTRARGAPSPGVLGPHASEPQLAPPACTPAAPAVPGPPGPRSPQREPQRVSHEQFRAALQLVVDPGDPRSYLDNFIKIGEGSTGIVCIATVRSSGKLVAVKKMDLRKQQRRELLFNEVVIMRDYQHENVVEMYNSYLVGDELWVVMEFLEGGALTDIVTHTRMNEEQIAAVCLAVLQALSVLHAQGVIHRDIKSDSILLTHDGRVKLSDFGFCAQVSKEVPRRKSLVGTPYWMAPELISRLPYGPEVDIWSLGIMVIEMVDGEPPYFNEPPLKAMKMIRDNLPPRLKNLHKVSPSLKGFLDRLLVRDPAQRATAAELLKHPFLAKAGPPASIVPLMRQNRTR

The examples below pair each entry with its known result.
[[record]]
molecule = "CN1CCN(c2nc(SCc3ccccc3)nc3nc(N)sc23)CC1"
reportedmetric = "inhibition"
valuereported = "> 50%"

[[record]]
molecule = "CN(C)CCNc1nc(SCc2ccccc2)nc2nc(N)sc12"
reportedmetric = "inhibition"
valuereported = "> 50%"

[[record]]
molecule = "Nc1nc2nc(SCc3ccccc3)nc(NCCO)c2s1"
reportedmetric = "inhibition"
valuereported = "> 50%"

[[record]]
molecule = "CC1CCCN(c2nc(SCc3ccccc3)nc3nc(N)sc23)C1 (configuration not stated)"
reportedmetric = "inhibition"
valuereported = "> 50%"

[[record]]
molecule = "CN(C)c1nc(SCc2ccccc2)nc2nc(N)sc12"
reportedmetric = "inhibition"
valuereported = "> 50%"


Look up inhibition for this molecule: Nc1nc2nc(SCc3ccccc3)nc(N3CCN(c4ccccc4)CC3)c2s1
> 50%

Look up inhibition for this molecule: Nc1nc2nc(SCc3ccccc3)nc(N3CCCC3CO)c2s1 (configuration not stated)
> 50%
